tested target: human AMPK α1β1γ1 enzyme (Homo sapiens, UniProt Q13131+Q9Y478)
Construct: purchased Carna Biosciences, Inc
Sequence (Q13131 10-559 limits assumed): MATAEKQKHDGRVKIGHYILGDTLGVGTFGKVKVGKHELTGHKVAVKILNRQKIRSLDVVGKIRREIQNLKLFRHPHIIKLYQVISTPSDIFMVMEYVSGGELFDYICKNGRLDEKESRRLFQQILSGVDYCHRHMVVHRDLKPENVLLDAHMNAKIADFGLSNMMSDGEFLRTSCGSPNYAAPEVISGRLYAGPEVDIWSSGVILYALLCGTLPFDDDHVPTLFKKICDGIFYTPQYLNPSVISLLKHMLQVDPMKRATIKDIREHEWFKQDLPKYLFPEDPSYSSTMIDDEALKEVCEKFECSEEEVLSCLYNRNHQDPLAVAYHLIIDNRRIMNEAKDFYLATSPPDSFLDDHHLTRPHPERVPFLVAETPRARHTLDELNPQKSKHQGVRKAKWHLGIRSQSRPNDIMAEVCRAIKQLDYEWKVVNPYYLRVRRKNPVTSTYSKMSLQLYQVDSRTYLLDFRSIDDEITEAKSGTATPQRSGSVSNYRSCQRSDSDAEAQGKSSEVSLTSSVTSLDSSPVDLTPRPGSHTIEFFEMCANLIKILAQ
Sequence (Q9Y478 whole entry): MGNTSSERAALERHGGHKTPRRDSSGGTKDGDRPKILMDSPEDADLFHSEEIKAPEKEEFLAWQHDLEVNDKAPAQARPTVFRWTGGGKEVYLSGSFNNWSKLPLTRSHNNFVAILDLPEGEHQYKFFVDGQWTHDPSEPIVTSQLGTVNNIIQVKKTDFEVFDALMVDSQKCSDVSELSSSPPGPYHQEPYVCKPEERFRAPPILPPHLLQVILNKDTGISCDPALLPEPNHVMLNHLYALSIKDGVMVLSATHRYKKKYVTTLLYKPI
Sequence (P54619 whole entry partner): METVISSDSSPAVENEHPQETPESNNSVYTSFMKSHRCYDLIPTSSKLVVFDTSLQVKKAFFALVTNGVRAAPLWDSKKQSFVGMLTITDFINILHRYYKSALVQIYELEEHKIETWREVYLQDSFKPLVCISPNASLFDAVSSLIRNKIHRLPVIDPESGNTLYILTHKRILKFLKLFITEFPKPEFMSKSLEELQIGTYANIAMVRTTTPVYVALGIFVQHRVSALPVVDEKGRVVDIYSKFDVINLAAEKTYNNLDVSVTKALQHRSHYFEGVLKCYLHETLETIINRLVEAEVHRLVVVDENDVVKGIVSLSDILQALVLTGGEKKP
protocol summary: Evaluation of AMPK activator, Test Example 1 (mobility-shift kinase assay, FL-Peptide 7)
Assay type: biochemical
measurement setup: human AMPK α1β1γ1, relative to control (100%); read-out: Emax (maximum rate of increase in activity within the measurement range)
observed property: Emax

Below, 5 compounds whose answers are already recorded.
compound	tested target	recorded measurement
CC(C)(C(=O)O)[C@]1(O)CC[C@@H](Oc2nc3nc(-c4ccc(N5CCCCC5)cc4)c(Cl)cc3[nH]2)CC1	human AMPK α1β1γ1 enzyme (Homo sapiens, UniProt Q13131+Q9Y478)	338%
CC(C)(C(=O)O)C1CCC(Oc2nc3nc(-c4ccc(C5=CCOCC5)cc4)c(Cl)cc3[nH]2)CC1 (stereo not shown)	human AMPK α1β1γ1 enzyme (Homo sapiens, UniProt Q13131+Q9Y478)	301%
CC(Oc1nc2nc(-c3ccc(N4CCCC4)cc3)c(Cl)cc2[nH]1)c1cc(O)no1 (stereo not shown)	human AMPK α1β1γ1 enzyme (Homo sapiens, UniProt Q13131+Q9Y478)	246%
CC(C)(C(N)=O)C1CCC(Oc2nc3nc(-c4ccc(N5CCOCC5)cc4)c(Cl)cc3[nH]2)CC1 (stereo not shown)	human AMPK α1β1γ1 enzyme (Homo sapiens, UniProt Q13131+Q9Y478)	210%
CC(C)(C(=O)O)[C@H]1CC[C@H](Oc2nc3nc(-c4ccc(-c5ccc(C(=O)N6CCC(O)CC6)cc5)cc4)c(Cl)cc3[nH]2)CC1	human AMPK α1β1γ1 enzyme (Homo sapiens, UniProt Q13131+Q9Y478)	311%

(Q) Recorded Emax of CC(Oc1nc2nc(-c3ccc(N4CCOCC4)cc3)c(Cl)cc2[nH]1)C(C)(C)C(=O)O (stereo not shown) , please.
(A) 258%

(Q) CC(C)(C(=O)O)[C@]1(O)CC[C@@H](Oc2nc3nc(-c4c(F)cc(N5CCOCC5)cc4F)ccc3[nH]2)CC1 ?
(A) 333%

* * *

tested target: human AMPK α1β1γ1 enzyme (Homo sapiens, UniProt Q13131+Q9Y478)
Construct: purchased Carna Biosciences, Inc
protocol summary: Evaluation of AMPK activator, Test Example 1 (mobility-shift kinase assay, FL-Peptide 7)
Format: biochemical
measurement setup: human AMPK α1β1γ1, 25° C., 2 hours, 0.2 mM ATP final
Some compounds, each annotated with its measured EC150 (compound concentration showing 150% relative to the control (100%)).
Number only, in nM; omit the unit.

compound	tested target	recorded measurement
CC(Cc1nc2nc(-c3ccc(N4CCOCC4)cc3)c(Cl)cc2[nH]1)C(=O)O (stereo not shown) [Compound I-1-62]	human AMPK α1β1γ1 enzyme (Homo sapiens, UniProt Q13131+Q9Y478)	540
O=C(c1ccc(-c2ccc(-c3nc4nc(O[C@H]5CC[C@H](C(=O)O)CC5)[nH]c4cc3Cl)cc2)cc1)N1CCOCC1 [Compound I-2-61]	human AMPK α1β1γ1 enzyme (Homo sapiens, UniProt Q13131+Q9Y478)	72
CN1CCc2cc(-c3nc4nc(O[C@H]5CC[C@](O)(C(C)(C)C(=O)O)CC5)[nH]c4cc3Cl)ccc21 [Compound I-3-52]	human AMPK α1β1γ1 enzyme (Homo sapiens, UniProt Q13131+Q9Y478)	2.3

Next up:
(Q) Recorded EC150 (compound concentration showing 150% relative to the control (100%)) of CC(Sc1nc2nc(-c3ccc(N4CCOCC4)cc3)c(Cl)cc2[nH]1)C(=O)O (stereo not shown) [Compound I-1-39] , please.
(A) 160
